- Test system: Agrobacterium tumefaciens
- ASSAY_DETAILS: Antitumor activity against Agrobacterium tumefaciens B6-induced crown-gall tumor formation in potato assessed as tumor induction at 5 ug/disk after 12 days at 27 degC by potato disk assay relative to control
- Format: functional
Assign Condition met to entries whose Activity meets or exceeds -10%; assign Condition not met to the rest.

Q: Reported Activity at or above -10%? C[C@@H]1C[C@H]2O[C@@H]2/C=C\C=C\C(=O)Cc2c(Cl)c(O)cc(O)c2C(=O)O1
Result: Condition not met

Q: Reported Activity at or above -10%? C[C@@H]1C/C=C/CCCCC(=O)Cc2cc(O)cc(O)c2C(=O)O1
Result: Condition met

Q: Reported Activity at or above -10%? CC[C@H]1C2[C@H]([C@@H](C)c3c[nH]c4ccccc34)NC(=O)[C@@]23C(=O)/C=C\C(=O)[C@H](O)/C(C)=C\[C@@H](C)C/C=C/[C@H]3[C@@H]2O[C@]12C (stereo partly specified)
Result: Condition not met

Q: Reported Activity at or above -10%? C[C@H]1CCC[C@H](C[C@H]2Cc3cc(O)cc(O)c3C(=O)O2)O1
Result: Condition not met

Q: Reported Activity at or above -10%? CC[C@@H]1CCc2occ(CO)c(=O)c2[C@H]1O
Result: Condition not met

Q: Reported Activity at or above -10%? CO[C@]12c3c(C)cc(O)c4c(=O)occ(c34)C(=O)[C@H]1[C@]13COC(=O)c4c(O)cc(C)c(c41)C(=O)[C@H]2[C@@H]3OC(C)=O
Result: Condition not met

###

- System: Aspergillus flavus
- ASSAY_DETAILS: Antifungal activity against Aspergillus flavus at 50 to 500 ug/disk by paper-disk-plate technique
- Assay type: functional, organism-based
Active and inactive are the calls of the source. The rule behind the calls is not given here.
MEASURE: Activity

INSERT INTO results (compound, endpoint_value) VALUES
  ('CC[C@H]1C2[C@H]([C@@H](C)c3c[nH]c4ccccc34)NC(=O)[C@@]23C(=O)/C=C\C(=O)[C@H](O)/C(C)=C\[C@@H](C)C/C=C/[C@H]3[C@@H]2O[C@]12C (some centres undefined) [CHAETOGLOBOSIN K]', 'inactive'),
  ('CC[C@@H]1CCc2occ(CO)c(=O)c2[C@H]1O [DIPLODIOL]', 'inactive'),
  ('CO[C@]12c3c(C)cc(O)c4c(=O)occ(c34)C(=O)[C@H]1[C@]13COC(=O)c4c(O)cc(C)c(c41)C(=O)[C@H]2[C@@H]3OC(C)=O', 'inactive'),
  ('C[C@@H]1C/C=C/CCCCC(=O)Cc2cc(O)cc(O)c2C(=O)O1 [MONOCILLIN IV]', 'inactive');

###

- System: Brochothrix thermosphacta
- ASSAY_DETAILS: Antibacterial activity against Microbacterium thermosphactum at 50 to 500 ug/disk by paper-disk-plate technique
- Type: functional, organism-based
Active and inactive are the calls of the source. No cut-off for these calls is given here.
MEASURE: Activity

INSERT INTO assay_data (molecule, target_entity, endpoint_value) VALUES
  ('CC[C@H]1C2[C@H]([C@@H](C)c3c[nH]c4ccccc34)NC(=O)[C@@]23C(=O)/C=C\C(=O)[C@H](O)/C(C)=C\[C@@H](C)C/C=C/[C@H]3[C@@H]2O[C@]12C (some centres undefined)', 'Brochothrix thermosphacta', 'inactive'),
  ('CO[C@]12c3c(C)cc(O)c4c(=O)occ(c34)C(=O)[C@H]1[C@]13COC(=O)c4c(O)cc(C)c(c41)C(=O)[C@H]2[C@@H]3OC(C)=O', 'Brochothrix thermosphacta', 'inactive'),
  ('C[C@@H]1C/C=C/CCCCC(=O)Cc2cc(O)cc(O)c2C(=O)O1', 'Brochothrix thermosphacta', 'inactive'),
  ('CC[C@@H]1CCc2occ(CO)c(=O)c2[C@H]1O', 'Brochothrix thermosphacta', 'inactive');
